tested-system: human leukocyte elastase (Homo sapiens, UniProt P08246)
Sequence (P08246 30-267): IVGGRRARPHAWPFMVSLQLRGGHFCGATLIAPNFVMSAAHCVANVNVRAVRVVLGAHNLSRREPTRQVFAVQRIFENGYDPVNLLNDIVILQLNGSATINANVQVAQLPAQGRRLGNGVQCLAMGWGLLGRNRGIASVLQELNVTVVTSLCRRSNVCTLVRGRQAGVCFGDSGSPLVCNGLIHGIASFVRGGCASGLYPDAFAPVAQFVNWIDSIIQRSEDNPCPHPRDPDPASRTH
pKi: −log10 of the molar value.
observable: pKi

[
  {
    "compound": "CC(C)CCC1C(=O)N(COc2cc(=O)n3ccccc3n2)S(=O)(=O)N1C (stereo not shown) [Example 1(j)]",
    "observable": "pKi",
    "experimental-value": 9.10
  }
]
